Protocol text: chemical genetic growth profiling, strain panel (AID 1159580);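 note: tested at 20 µM; growth read once vehicle control cultures reached saturation at 30 °C; 1 = growth at the plate median or of vehicle wells; lower values mean less growth of the strain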
Assay conditions: S. cerevisiae deletion strains, growth OD, locus YDR392W, strain spt3
Among all 5,500 compounds or so, about 2,000 (36%) were called active. About 18% were inconclusive and are not listed. Cut-off read from the data, not from the text of the source: active = normalized growth mostly below about 0.91 (no sharp cut-off); inconclusive = no clear call, values can overlap the other calls; inactive = mostly above about 0.92. The list shows a part of the results.
Assign a class; possible classes are true for active, false for inactive

For orientation, consider the following solved cases.
{"Compound": "CCCCCCCCCCCCCc1ccco1", "Assigned class": "true"}
{"Compound": "C[C@H]1COc2c(N3CCN(C)CC3)c(F)cc3c(=O)c(C(=O)O)cn1c23", "Assigned class": "false"}
{"Compound": "CO/N=C1/CN(c2nc3c(cc2F)c(=O)c(C(=O)O)cn3C2CC2)CC1CN (centres undefined)", "Assigned class": "false"}
{"Compound": "C[C@]12CCC(=O)C=C1C=CC1C2CC[C@@]2(C)C1CC[C@@]21CCC(=O)O1 (some centres undefined)", "Assigned class": "true"}

stdin: Returns: the outcome recorded for CCC(C)C(=O)O[C@@H]1C[C@@]2(C)[C@H](c3ccoc3)OC(=O)CC23OC2(C)OC34[C@H](OC(=O)C(C)C)[C@@]3(O)[C@@H](OC(=O)C5(C)OC5C)[C@@]5(C)C[C@]3(O)[C@@](C)([C@H]5CC(=O)OC)C14O2 (some centres undefined) in this assay.
stdout: false

stdin: Returns: the outcome recorded for COc1ccc(CN(CCN(C)C)c2ccccn2)cc1 in this assay.
stdout: false

stdin: Returns: the outcome recorded for CN1C2CCC1CC(OC(c1ccccc1)c1ccccc1)C2 (centres undefined) in this assay.
stdout: false

stdin: Returns: the outcome recorded for O=C(/C=C/c1ccc(O)c(O)c1)OC(Cc1ccc(O)c(O)c1)C(=O)O (centres undefined) in this assay.
stdout: false

stdin: Returns: the outcome recorded for CCn1cc(C(=O)O)c(=O)c2cc(F)c(N3CCNC(C)C3)c(F)c21 (centres undefined) in this assay.
stdout: false

stdin: Returns: the outcome recorded for C#CCCCCCCCCCCCc1ccco1 in this assay.
stdout: true

###

Protocol text: chemical genetic growth profiling, strain panel (AID 1159580)
Assay conditions: S. cerevisiae deletion strains, growth OD, locus YGL167C, strain pmr1, active compounds read low
Out of some 5,500 compounds screened, about 2,000 (36%) were called active. Inconclusive results (about 18%) are left out. The list shows a part of the results.
# normalized growth annotations
Just the number, please, no unit attached.

stdin: Can you share its normalized growth? I mean this compound: CC(C)NCC(O)COc1cccc2[nH]ccc12 (stereo not drawn)
stdout: 0.976

stdin: Can you share its normalized growth? I mean this compound: Cc1[nH]c2ccccc2c1CN(C)C
stdout: 1.04

stdin: Can you share its normalized growth? I mean this compound: CCCCCCCCCCC[C@@H](C[C@H]1OC(=O)[C@H]1CCCCCC)OC(=O)[C@@H](CC(C)C)NC=O
stdout: 0.994

###

Protocol text: chemical genetic growth profiling, strain panel (AID 1159580)
Assay conditions: S. cerevisiae deletion strains, growth OD, locus YDR502C, strain sam2
In all, about 5,500 compounds went through this assay and about 2,000 (36%) were called active. Not shown: some 18% with an inconclusive outcome. No stated cut-off is given here; in the data, active means normalized growth mostly below about 0.91 (no sharp cut-off); inconclusive means no clear call, values can overlap the other calls; inactive means mostly above about 0.92. The list shows a part of the results.
Assign a class; possible classes are 1 = active, 0 = inactive

For orientation, consider the following solved cases.
{"Compound": "CCC1(O)CC(OC2CC(N(C)C)C(OC3CC(O)C(OC4CCC(=O)C(C)O4)C(C)O3)C(C)O2)c2c(cc3c(c2O)C(=O)c2c(O)cccc2C3=O)C1C(=O)OC (stereo not drawn)", "Assigned class": 0}
{"Compound": "O=C1C(Cl)=C(Cl)C(=O)C(Cl)=C1Cl", "Assigned class": 1}

Could you now look at the following compound, please?
stdin: Returns: the outcome recorded for CC[C@H]1OC(=O)[C@H](C)[C@@H](O[C@H]2C[C@@](C)(OC)[C@@H](O)[C@H](C)O2)[C@H](C)[C@@H](O[C@@H]2O[C@H](C)C[C@H](N(C)C)[C@H]2O)[C@](C)(OC)C[C@@H](C)C(=O)[C@H](C)[C@@H](O)[C@]1(C)O in this assay.
stdout: 0

###

Protocol text: chemical genetic growth profiling, strain panel (AID 1159580)
Assay conditions: S. cerevisiae deletion strains, growth OD, locus YDR195W, strain ref2
Hit rate of the full screen: of about 5,500 compounds, about 2,000 (36%) were called active. Not shown: some 18% with an inconclusive outcome. No stated cut-off is given here; in the data, active means normalized growth mostly below about 0.91 (no sharp cut-off); inconclusive means no clear call, values can overlap the other calls; inactive means mostly above about 0.92. The list shows a part of the results.
Assign a class; possible classes are 1.0 (active), 0.0 (inactive)

For orientation, consider the following solved cases.
{"Compound": "Oc1cc(O)c2c(c1)O[C@H](c1cc(O)c(O)c(O)c1)[C@H](O)C2", "Assigned class": 0.0}
{"Compound": "Nc1nc(=S)c2[nH]cnc2[nH]1", "Assigned class": 0.0}
{"Compound": "CC[C@@]1(O)C[C@H](O[C@H]2C[C@H](N(C)C)[C@H](O)[C@H](C)O2)c2c(cc3c(c2O)C(=O)c2c(O)cccc2C3=O)[C@H]1C(=O)OC", "Assigned class": 1.0}
{"Compound": "COc1ccc(-c2coc3cc(O)ccc3c2=O)c(OC)c1O", "Assigned class": 0.0}
{"Compound": "O=c1c(-c2ccc(O)cc2)coc2cc(O)ccc12", "Assigned class": 0.0}

Could you now look at the following compound, please?
stdin: Returns: the outcome recorded for Oc1cc(O)c2c(c1)O[C@H](c1ccc(O)c(O)c1)[C@@H](O)C2 in this assay.
stdout: 0.0

###

# normalized growth annotations
Protocol text: chemical genetic growth profiling, strain panel (AID 1159580);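 note: tested at 20 µM; growth read once vehicle control cultures reached saturation at 30 °C; 1 = growth at the plate median or of vehicle wells; lower values mean less growth of the strain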
Assay conditions: S. cerevisiae deletion strains, growth OD, locus YJL134W, strain LCB3, active compounds read low
Screen size: about 5,500 compounds; about 2,000 (36%) were called active. Roughly 18% stayed inconclusive and do not appear here. The list shows a part of the results.
Just the number, please, no unit attached.

Worked cases, answers included:
{"Compound": "Cc1ccccc1C(OCCN(C)C)c1ccccc1 (centres undefined)", "normalized growth": 1}
{"Compound": "O=C1NCC2(CCN(CCc3ccccc3)CC2)O1", "normalized growth": 1.01}
{"Compound": "CC1CCc2cc(F)cc3c(=O)c(C(=O)O)cn1c23 (centres undefined)", "normalized growth": 0.984}

stdin: Can you share its normalized growth? I mean this compound: CCCCCCCCCCC[C@@H](C[C@H]1OC(=O)[C@H]1CCCCCC)OC(=O)[C@@H](CC(C)C)NC=O
stdout: 1.02

stdin: Can you share its normalized growth? I mean this compound: CCn1cc(C(=O)O)c(=O)c2cc(F)c(N3CCNC(C)C3)c(F)c21 (centres undefined)
stdout: 0.987

stdin: Can you share its normalized growth? I mean this compound: COC(=O)/C=C/C(C)=C/C=C/C(C)=C/C=C/C=C(C)/C=C/C=C(C)/C=C/C(=O)O
stdout: 1.01

###

Protocol text: chemical genetic growth profiling, strain panel (AID 1159580);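 note: tested at 20 µM; growth read once vehicle control cultures reached saturation at 30 °C; 1 = growth at the plate median or of vehicle wells; lower values mean less growth of the strain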
Assay conditions: S. cerevisiae deletion strains, growth OD, locus YGL078C, strain dbp3, active compounds read low
Screen size: about 5,500 compounds; about 2,000 (36%) were called active. About 18% were inconclusive and are not listed. The list shows a part of the results.
# normalized growth annotations
Just the number, please, no unit attached.

Worked cases, answers included:
{"Compound": "O=C(O)/C=C/c1ccc(O)c(O)c1", "Measured": 0.997}
{"Compound": "Cc1ccc(S(=O)(=O)NC(=O)NN2CCCCCC2)cc1", "Measured": 0.987}
{"Compound": "COC(=O)C[C@H]1C2(C)CC34OC5(C)O[C@@]6([C@H](OC)C(OC(=O)C(C)C)[C@]7(C)C(/C(=C(/OC)C(C)C)C(=O)O[C@H]7c7ccoc7)[C@@]6(O5)[C@H](OC)[C@@]3(OC)C2OC(C)=O)[C@]14C (stereo not given in full)", "Measured": 0.994}
{"Compound": "CN1C2C[C@H](OC(=O)[C@H](CO)c3ccccc3)C[C@H]1[C@@H](O)C2", "Measured": 0.999}

Let us examine a further case.
stdin: Can you share its normalized growth? I mean this compound: CCN(CC)C(=O)N1CCN(C)CC1
stdout: 0.997

###

Protocol text: chemical genetic growth profiling, strain panel (AID 1159580);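 note: tested at 20 µM; growth read once vehicle control cultures reached saturation at 30 °C; 1 = growth at the plate median or of vehicle wells; lower values mean less growth of the strain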
Assay conditions: S. cerevisiae deletion strains, growth OD, locus YDL101C, strain DUN1
Out of some 5,500 compounds screened, about 2,000 (36%) were called active. Inconclusive results (about 18%) are left out. Cut-off read from the data, not from the text of the source: active = normalized growth mostly below about 0.91 (no sharp cut-off); inconclusive = no clear call, values can overlap the other calls; inactive = mostly above about 0.92. The list shows a part of the results.
Assign a class; possible classes are active, inactive

{"Smiles data": "O=C(ON=C1CCCCC1)c1ccc([N+](=O)[O-])cc1", "Assigned class": "inactive"}
{"Smiles data": "C/C(=N/O)c1sc2nc(C(F)(F)F)nn2c1C", "Assigned class": "inactive"}
{"Smiles data": "Cc1c(C(=O)Sc2ccc(F)cc2F)sc2nc(C(F)(F)F)nn12", "Assigned class": "active"}
{"Smiles data": "COC(=O)c1ccc2c(c1)N(C)S(=O)(=O)CC2=O", "Assigned class": "inactive"}
{"Smiles data": "COC(=O)c1cc(=O)c(O)c2c(O)c(O)ccc2c1", "Assigned class": "active"}

stdin: Returns: the outcome recorded for O=[N+]([O-])c1ccc(ON=C2CCCCC2)c([N+](=O)[O-])c1 in this assay.
stdout: active
